- assay_method_text: self-splicing fitness, log relative to wild type (ln ratio); higher = more splicing; Tetrahymena group I intron in knt gene, E. coli kanamycin selection, DiMSum; sequences stand for … in CUCUCU…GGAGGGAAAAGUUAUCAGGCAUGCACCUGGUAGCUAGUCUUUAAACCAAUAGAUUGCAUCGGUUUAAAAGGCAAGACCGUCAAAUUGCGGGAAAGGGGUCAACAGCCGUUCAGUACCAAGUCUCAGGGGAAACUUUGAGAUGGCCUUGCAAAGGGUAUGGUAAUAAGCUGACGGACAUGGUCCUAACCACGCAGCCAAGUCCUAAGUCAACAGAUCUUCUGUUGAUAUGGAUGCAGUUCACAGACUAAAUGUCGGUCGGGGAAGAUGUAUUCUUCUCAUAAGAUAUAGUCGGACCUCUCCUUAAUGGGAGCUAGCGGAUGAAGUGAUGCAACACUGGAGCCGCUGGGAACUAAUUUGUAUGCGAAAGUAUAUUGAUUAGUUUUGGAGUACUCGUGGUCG;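 also: selection with 25 µg/mL kanamycin versus none on LB agar overnight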
- measurement_setup: 30 °C
measured_metric: self-splicing fitness (ln)
// print number alone

{"columns": ["chain_sequence", "measured_metric", "value_measured"],
 "data": [
  ["AGCUAGCAAUAUUACGGUAG", "self-splicing fitness (ln)", -3.91]
]}

Would you kindly look at the next entry?
## Task For the sequence shown here, `AGGCAGCAAUAUUACGCAGA` , give the reported self-splicing fitness (ln).
## Result -1.37
